Biological target: Structural capsid protein (Human immunodeficiency virus 1) (UniProt Q76129)
Sequence (Q76129 as listed by the source): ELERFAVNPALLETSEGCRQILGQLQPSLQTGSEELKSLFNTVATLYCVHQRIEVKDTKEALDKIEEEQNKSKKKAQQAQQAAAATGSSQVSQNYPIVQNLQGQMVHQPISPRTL
Assay: Inhibition of Human immunodeficiency virus 1 capsid protein expressed in Escherichia coli BL21(DE3) assessed as capsid assembly rate measured every 5 secs by spectrofluorometric analysis (reference value: 51.88 x 10^-5 OD/s)
MEASUREMENT TYPE: Activity (×10⁻⁵ OD/s)
Write down the numeric answer in ×10⁻⁵ OD/s and omit the unit.

[Q] Value lookup for Activity; key = `Cc1cc(NS(=O)(=O)c2ccc(NC(=S)Nc3ccc(C)c(Cl)c3)cc2)no1`
[A] 18.4

[Q] Report Activity for `Cc1ccc(NS(=O)(=O)c2ccc(NC(=S)Nc3ccc(Cl)cc3)cc2)cc1` please.
[A] 13.3

[Q] Name the reported Activity value associated with the compound `CCN(CC)c1nc(C)c([N+](=O)[O-])c(NC(=S)Nc2cccc(F)c2)n1`
[A] 20.7

[Q] Given `Cc1cc(NS(=O)(=O)c2ccc(NC(=S)Nc3cccc(Br)c3)cc2)no1` , state its recorded Activity.
[A] 15.8

[Q] Could you tell me which Activity is on file for `O=C1OCc2ccc(NC(=S)Nc3ccccc3)cc21` ?
[A] 25.5

[Q] Return reported Activity; argument: `Cc1ccc(NC(=S)Nc2ccc3c(c2)C(=O)OC3)cc1Cl`
[A] 9.9

[Q] # input compound: `Cc1cccc(NC(=S)Nc2ccc3c(c2)C(=O)OC3)c1` ; wanted: its Activity
[A] 32.7

[Q] Entry `Cc1cc(NS(=O)(=O)c2ccc(NC(=S)Nc3ccc(Cl)cc3)cc2)no1` : reported Activity = ?
[A] 14.7

[Q] May I ask what Activity has been recorded for `CCN(CC)c1nc(C)c([N+](=O)[O-])c(NC(=S)Nc2cccc(Cl)c2)n1` ?
[A] 21.2

[Q] Requested field: Activity. Item: `COc1ccc(NC(=S)Nc2ccc(S(=O)(=O)Nc3cc(C)on3)cc2)cc1`
[A] 20.2

[Q] # get_value(readout='Activity', item= `Cc1cc(NS(=O)(=O)c2ccc(NC(=S)Nc3cccc(Cl)c3)cc2)no1` )
[A] 7.97

[Q] What does the record list as Activity for `CCN(CC)c1nc(C)c([N+](=O)[O-])c(NC(=S)Nc2ccc(Cl)cc2)n1` ?
[A] 48.9

[Q] Would you mind telling me what Activity value was observed for `Cc1ccc(NC(=O)NCCSCc2ccc(CN(C)C)o2)cc1Cl` ?
[A] 26.5

[Q] Could you share which Activity value was measured for `Cc1cc(NS(=O)(=O)c2ccc(NC(=S)Nc3cccc(F)c3)cc2)no1` ?
[A] 38.5

* * *

Molecular target: Peptidyl-prolyl cis-trans isomerase A (Homo sapiens, UniProt P62937)
Sequence (P62937 whole entry): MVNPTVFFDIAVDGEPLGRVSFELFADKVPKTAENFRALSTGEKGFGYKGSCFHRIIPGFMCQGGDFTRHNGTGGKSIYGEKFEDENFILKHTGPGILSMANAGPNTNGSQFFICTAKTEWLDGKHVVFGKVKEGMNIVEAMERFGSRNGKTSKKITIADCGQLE
Assay: Inhibition of Homo sapiens (human) cyclophilin A PPIase activity expressed in Escherichia coli BL21(DE3) using Suc-AAPF-pNA as substrate measured after 6 secs for 20 secs by spectrophotometric analysis
Conditions: read-out: IC50
MEASUREMENT TYPE: pIC50
By convention, pIC50 is the negative base-10 log of a molar concentration.

[Q] API: value(readout=pIC50, system=Peptidyl-prolyl cis-trans isomerase A (Homo sapiens, UniProt P62937)) for record `CCN(CC)c1nc(C)c([N+](=O)[O-])c(NC(=S)Nc2cccc(Br)c2)n1`
[A] 6.09

[Q] Notebook entry, Peptidyl-prolyl cis-trans isomerase A (Homo sapiens, UniProt P62937) assay: pIC50 of `CCN(CC)c1nc(C)c([N+](=O)[O-])c(NC(=S)Nc2ccc(C)c(Cl)c2)n1` = ?
[A] 6.13

[Q] Item `O=C1OCc2ccc(NC(=S)Nc3cccc(F)c3)cc21` with Peptidyl-prolyl cis-trans isomerase A (Homo sapiens, UniProt P62937) - pIC50?
[A] 6.13

[Q] Any idea what pIC50 came out for `COc1ccc(NC(=S)Nc2ccc3c(c2)C(=O)OC3)cc1` on Peptidyl-prolyl cis-trans isomerase A (Homo sapiens, UniProt P62937)?
[A] 6.04

[Q] Record lookup: for Peptidyl-prolyl cis-trans isomerase A (Homo sapiens, UniProt P62937), what pIC50 belongs to `Cc1cc(NS(=O)(=O)c2ccc(NC(=S)Nc3cccc(F)c3)cc2)no1` ?
[A] 6.06
